pKi: −log10 of the molar value.
Literature compilation of pKi measurements on Protein kinase C alpha type (Homo sapiens, UniProt P17252).

compound: C[C@H](Nc1ncc2nc(-c3ccccc3Cl)n(C[C@@H]3CCCNC3)c2n1)c1ccccc1F
pKi: < 5.00
--
compound: CC(C)C[C@H]1CN(c2ccc(-c3cnn(C)c3)c(C(=O)c3cccnc3N)n2)CCN1
pKi: 5.55 to 6.30
--
compound: CC(C)C[C@H]1CN(c2ccc(C#CC3CC3)c(C(=O)c3cccnc3N)n2)CCN1
pKi: 5.55 to 6.30
--
compound: CC(C)C[C@]1(O)CN(c2ccc(C(F)(F)F)c(-c3n[nH]c4ncccc34)n2)CC[C@H]1N
pKi: > 6.30
--
compound: CC(C)C(C)(O)C1CN(c2cncc(-c3n[nH]c4ncccc34)n2)CCN1 (centres unmarked)
pKi: > 6.30
--
compound: c1cc(-c2n[nH]c3ncccc23)nc(C2CCNCC2)c1
pKi: > 5.55
--
compound: Fc1ccc(CNc2ncc3nc(-c4c(Cl)cccc4Cl)n(C[C@@H]4CCCNC4)c3n2)c(F)c1
pKi: < 6.00
--
compound: CC(C)CC1CN(c2ccc(F)c(-c3n[nH]c4ncccc34)n2)CCC1CN (centres unmarked)
pKi: > 5.55

====

Literature compilation of pKi measurements on UniProt:P17252.
pKi: −log10 of the molar value.
readout_kind: pKi

compound: CNC(=O)C1CN(c2ccc(C(F)(F)F)c(-c3n[nH]c4ncccc34)n2)CCN1 (stereo not drawn)
result: < 5.90

compound: Clc1ccc(N2CCNCC2)nc1-c1n[nH]c2ncccc12
result: > 5.55

compound: CCC(N)C1CCCN(c2ccc(F)c(-c3n[nH]c4ncccc34)n2)C1 (stereo not drawn)
result: > 5.55

compound: CCC(N)C1(C(F)(F)F)CCN(c2ccc(F)c(-c3n[nH]c4ncccc34)n2)C1 (stereo not drawn)
result: < 5.90

compound: Fc1ccccc1CNc1ncc2nc(-c3c(F)cccc3Cl)n(C[C@H]3CCCNC3)c2n1
result: < 5.00

compound: Fc1ccc(CNc2ncc3nc(-c4c(F)cccc4Cl)n(CC4CCNC4)c3n2)cc1F (stereo not drawn)
result: < 6.00

compound: CC(C)C[C@H]1CN(c2ccc(C#CC(C)(C)O)c(C(=O)c3cccnc3N)n2)CCN1
result: < 5.55

compound: CCCC1CN(c2ccc(Cl)c(-c3n[nH]c4ncccc34)n2)CCN1 (stereo not drawn)
result: < 5.90

compound: N#CC1(c2cccc(-c3ncnc4[nH]nc(C5CC5)c34)c2)CC1
result: < 5.90

====

pKi: −log10 of the molar value.
Literature compilation of pKi measurements on Protein kinase C alpha type (Homo sapiens, UniProt P17252).
readout_kind: pKi

compound: CC(C)C[C@H]1CN(c2csc(-c3n[nH]c4ncccc34)n2)CCN1
readout_kind: pKi
result: < 5.90
--
compound: CC(C)CC1(C)CN(c2nc(-c3n[nH]c4ncccc34)ccc2F)CCN1 (stereo not shown)
readout_kind: pKi
result: > 5.55
--
compound: CC(C)C[C@H]1CN(c2ccc(C(F)(F)F)c(C(=O)c3cccnc3N)n2)C[C@H](C)N1
readout_kind: pKi
result: 5.55 to 6.30
--
compound: CNc1cnc(N)c(C(=O)c2cccc(N3CCCNCC3)n2)c1
readout_kind: pKi
result: 5.55 to 6.30
